Origin of values: the supplement of paper PMC9732359

Assay: protein stability index of a GFP-peptide fusion (yeast GPS) (PSI 1-4); higher = more stable; sorted into four equal gates, so the index is relative within each strain
Conditions: ubr1∆
assay_readout: protein stability index
Hey, just send me the number, nothing else.

Example entries and their recorded answers appear below.
{"columns": ["sequence_record", "protein stability index"],
 "data": [
  ["TTAVDALQKGLKDLMDL [RPC19]", 3.02],
  ["FTICLNDRNPRLNENKK [CSN12]", 3.06]
]}

Continue with the sequence presented below.
Give the reported value of protein stability index for this record: TSIARIGDYILKSPVLS [QCR7]
1.98

----------
Assay: protein stability index of a GFP-peptide fusion (yeast GPS) (PSI 1-4); higher = more stable; sorted into four equal gates, so the index is relative within each strain
Conditions: san1∆
Reported protein stability index values follow for various sequences
Write the value as a bare number.

Consider the worked cases shown below.
{"columns": ["sequence_record", "measured_value"],
 "data": [
  ["KSESDELQMRSFLKEGD [RRP4]", 3.09],
  ["AHVNKVTEETTKQIQSV [SIR4]", 2.98],
  ["TRLYDYEIRDIDQDIHG [SSN2]", 3.48],
  ["DSVEFIFQAKRNSNPEN [RPN10]", 3.2],
  ["NITFSEELVSLAVFLFD [YJL039C/NUP192]", 1.62]
]}

Now turn to the next sequence.
// fetch protein stability index given entry FFEMLISKSLTFSQESG [RRI2]
1.25

----------
Experiment: protein stability index of a GFP-peptide fusion (yeast GPS) (PSI 1-4); higher = more stable; sorted into four equal gates, so the index is relative within each strain
Settings: san1∆
Note to self: values exactly at 3 are y. So protein stability index at or above 3 is y, below is n.

In plain terms: is recorded protein stability index at least 3 for ELKEITSLPDWCQEAFP [BRR2] ?
y

Determine whether measured protein stability index meets or exceeds 3 for IEQLFPVRPVRVRHEDV [RPC53]
n

Does the sequence KAAISFGAKPEEQKSSD [YJL041W/NSP1] have recorded protein stability index that is 3 or more?
y

Can DKKYKGLTTVWLLSALG [REC8] be said to have protein stability index at or above 3?
n

----------
Test: protein stability index of a GFP-peptide fusion (yeast GPS) (PSI 1-4); higher = more stable; sorted into four equal gates, so the index is relative within each strain
Conditions: doa10∆
assay_readout: protein stability index
I'd appreciate a reply containing only the number, no unit.

Record excerpt, results attached:
{"columns": ["sequence_record", "assay_readout", "measured_value"],
 "data": [
  ["PQYINYSSIPSLQDSII [SSN2]", "protein stability index", 2.97],
  ["AKKRKTLILIQNPENLL [SIR3]", "protein stability index", 3.04],
  ["FEGNVATKAINGCIFTL [PRP8]", "protein stability index", 2.57],
  ["ETPNQDATYDSALELVG [RPN6]", "protein stability index", 2.62],
  ["DDEDDEHNPTIVGGLYY [AAR2]", "protein stability index", 3.22]
]}

Given the sequence ERNEQEREIMNDHSKSA [SWI3] , write its reported protein stability index.
3.27

Using known records, supply protein stability index for ATPGRLIDSLENHLLVM [PRP28]
2.66

----------
protein stability index by entry:
Experiment: protein stability index of a GFP-peptide fusion (yeast GPS) (PSI 1-4); higher = more stable; sorted into four equal gates, so the index is relative within each strain
Conditions: san1∆
Quick one: just the number, no unit, thanks!

{"columns": ["sequence_record", "protein stability index"],
 "data": [
  ["RLDILDPALLRPGRIDR [RPT6]", 2.65],
  ["WASKYGQEYPRIIGLSA [BRR2]", 1.87],
  ["EMEVDAEGEEVEVKAEI [RPN1]", 3.55],
  ["GLNAKQLYKARMSIKLL [POP1]", 2.41],
  ["HSNLEKISNSKLLSLLR [SIR4]", 2.5]
]}

Indicate the recorded protein stability index value for this sequence: KEDHPLEFYKDKFFNEV [SIR3]
3.34

Kindly indicate its recorded protein stability index. Item: TPLLENISISTSELGND [BRR2]
2.2

Give protein stability index for SNGGGKVKPIRGFCQRL [RPO31]
3.09

Return protein stability index (reported value) for this sequence: ITQDGKFAYKIDKITDG [YMR129W/POM152]
2.81

Specify measured protein stability index for DKLLDFIRYDVKTPKKT [CSN12] .
2.2

Input KKDVEKELPDKVEKVVK [SNF2] , output reported protein stability index.
3.39

Report protein stability index, nothing else, for this sequence: RKIKRLEKFLQGRDTSK [SRP72]
2.14

Look up and report measured protein stability index for this entry: RSMVRKWQTLIEANVTV [RPS1A]
1.67

Please report the measured protein stability index for LKNVEETQEIKENDTVM [ESC2]
2.92

Give the reported value of protein stability index for this record: EAMMLKEEGLQQFNLHE [MED1]
3.17

For the sequence GGFEYFLQPLLLVGLIK [NUT1] , give its reported protein stability index.
1.37

Give protein stability index for the following sequence: NGKEVPLAKIYLEENKS [MED1]
3.12

Please give the documented protein stability index of FFLSIYFFYASRPEYSC [YJL039C/NUP192]
1.19

Tell me its protein stability index given CIECQPKAMTDTDNECV [HRT1] as the entry.
2.94

Provide protein stability index value for the following sequence: SKSTSMKLSMPPEVTSS [POP1]
2.44

Determine its reported protein stability index: QNNTTKFHSELQYLDKH [RPN12]
2.39

Give me measured protein stability index, please, for this sequence: AELNLPTVDEQRQYKVQ [SNF11]
3.12

Consider the sequence SSDGALCMDSSYIGTII [POP1] and give its recorded protein stability index.
3.04

Report measured protein stability index; entry is TTVITVFLEFSLNFIPI [YML103C/NUP188]
1.83
